System: VI829 L100I+K103N
assay_explanation: Antiviral activity, NNRTI-resistant virus L100I+K103N
Type: cell-based, HIV-1
experimental_parameters: VI829 L100I+K103N
property_measured: FC (L100I+K103N)

>>> reported_value("Cc1cc(/C=C\\C#N)cc(C)c1Nc1nc(N)nc(Nc2ccc(C#N)cc2)n1 [T3]")
112
>>> reported_value("Cc1cc(C=CC#N)cc(C)c1Nc1nc(Nc2ccc(C#N)cc2)nc(N(C)C)n1 [T5]")
17
>>> reported_value("CNc1nc(Nc2ccc(C#N)cc2)nc(Oc2c(C)cc(C=CC#N)cc2C)n1 [T12]")
15
>>> reported_value("Cc1cc(C=CC#N)cc(C)c1Nc1nc(N)nc(Nc2ccc(C#N)cc2)n1 [T1]")
10
